Values were extracted from patent EP0942911B1.

biological target: α-1d adrenoreceptor (Rattus norvegicus, UniProt P23944); assay: biochemical; type: binding; details: [3H]-prazosin radioligand; cloned receptor in LTK cell membranes; read-out: Radioligand Binding (Ki, nM) 1d (Rat)
Sequence (P23944 whole entry): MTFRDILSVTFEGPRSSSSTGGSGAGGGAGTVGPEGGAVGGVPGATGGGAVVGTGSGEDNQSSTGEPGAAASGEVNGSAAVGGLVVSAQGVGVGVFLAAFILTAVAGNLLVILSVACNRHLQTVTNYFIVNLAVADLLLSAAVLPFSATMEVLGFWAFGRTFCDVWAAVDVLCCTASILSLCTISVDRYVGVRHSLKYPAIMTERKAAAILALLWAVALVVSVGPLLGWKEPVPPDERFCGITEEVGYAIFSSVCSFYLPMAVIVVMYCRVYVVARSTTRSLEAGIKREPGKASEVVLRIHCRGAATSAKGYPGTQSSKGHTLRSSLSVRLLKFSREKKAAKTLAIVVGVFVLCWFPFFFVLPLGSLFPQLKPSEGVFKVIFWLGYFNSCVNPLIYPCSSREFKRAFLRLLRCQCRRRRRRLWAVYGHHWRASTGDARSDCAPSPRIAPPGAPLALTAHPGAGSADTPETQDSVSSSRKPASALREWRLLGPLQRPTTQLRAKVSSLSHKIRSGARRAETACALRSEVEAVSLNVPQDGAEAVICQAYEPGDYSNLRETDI
Structures can show the parent of a compound that is named as a salt.
Value kind: Ki (nM)
Answer in nM, number only, no unit symbol.

COc1cccc2c1[C@@H]1CN(CCCCn3c(=O)[nH]c4c(sc5ncc(-c6ccsc6)nc54)c3=O)C[C@H]1CO2 [Example 59, dihydrochloride] : 0.257

Which value of Ki has been reported for COc1cccc2c1[C@@H]1CN(CCCCn3c(=O)[nH]c4c(sc5ncc(-c6ccoc6)nc54)c3=O)C[C@@H]1CO2 [Example 62, dihydrochloride] in the records? 411

Would you kindly share the measured Ki for COc1cccc2c1[C@H]1CN(CCCCn3c(=O)[nH]c4c(sc5cccnc54)c3=O)C[C@H]1CO2 [Example 2, hydrochloride] ? 2.72
